Attribution: ChEMBL document CHEMBL2202968

Listed compounds paired with reported pIC50
- test.description: Displacement of thiazine red R from amyloid beta (1 to 40) aggregate after 30 mins by fluorimetric analysis
pIC50 here: minus log base 10 of the concentration, concentration in moles per litre.

# molecule, pIC50
records = [
    ("COc1cc(/C=C/c2ccc(O)cc2)ccc1/C=C/c1ccc(O)cc1", 6.85),
    ("CCCC[N+]1=C(/C=C/c2ccc(N(CC)CC)cc2)C(C)(C)c2ccccc21.[I-]", 8.86),
]

We now examine a further compound.
Entry CC(=C(C#N)C#N)c1ccc2cc(N(C)CCF)ccc2c1 has what pIC50?
5.83

---

- test.description: Aqueous solubility of the compound
- Type: physicochemical
- details: buffer
measured.endpoint: solubility

Please review the entries below; each comes with its answer.
# molecule, solubility
rows = [
    ("C[N+]1=C(/C=C/c2ccc(N3CCCC3)cc2)C(C)(C)c2ccccc21.[I-]", "> 500 µg/mL"),
    ("C[N+]1=C(/C=C/c2ccc(O)cc2)C(C)(C)c2ccccc21.[I-]", "> 500 µg/mL"),
    ("CN1CCN(c2ccc(/C=C/C3=[N+](C)c4ccccc4C3(C)C)cc2)CC1.[I-]", "> 500 µg/mL"),
    ("COc1ccc(/C=C/C2=[N+](C)c3ccccc3C2(C)C)cc1.[I-]", "> 500 µg/mL"),
]

# get_value(readout='solubility', item= CCN(CC)c1ccc(/C=C/C2=[N+](C)c3ccccc3C2(C)C)cc1.[I-] )
> 500 µg/mL

Would you mind telling me what solubility value was observed for CCCC[N+]1=C(/C=C/c2ccc(N(CC)CC)cc2)C(C)(C)c2ccccc21.[I-] ?
> 100 µg/mL

---

# reported pIC50; entries follow
- test.target: UniProt P10636
- Sequence (P10636 whole entry): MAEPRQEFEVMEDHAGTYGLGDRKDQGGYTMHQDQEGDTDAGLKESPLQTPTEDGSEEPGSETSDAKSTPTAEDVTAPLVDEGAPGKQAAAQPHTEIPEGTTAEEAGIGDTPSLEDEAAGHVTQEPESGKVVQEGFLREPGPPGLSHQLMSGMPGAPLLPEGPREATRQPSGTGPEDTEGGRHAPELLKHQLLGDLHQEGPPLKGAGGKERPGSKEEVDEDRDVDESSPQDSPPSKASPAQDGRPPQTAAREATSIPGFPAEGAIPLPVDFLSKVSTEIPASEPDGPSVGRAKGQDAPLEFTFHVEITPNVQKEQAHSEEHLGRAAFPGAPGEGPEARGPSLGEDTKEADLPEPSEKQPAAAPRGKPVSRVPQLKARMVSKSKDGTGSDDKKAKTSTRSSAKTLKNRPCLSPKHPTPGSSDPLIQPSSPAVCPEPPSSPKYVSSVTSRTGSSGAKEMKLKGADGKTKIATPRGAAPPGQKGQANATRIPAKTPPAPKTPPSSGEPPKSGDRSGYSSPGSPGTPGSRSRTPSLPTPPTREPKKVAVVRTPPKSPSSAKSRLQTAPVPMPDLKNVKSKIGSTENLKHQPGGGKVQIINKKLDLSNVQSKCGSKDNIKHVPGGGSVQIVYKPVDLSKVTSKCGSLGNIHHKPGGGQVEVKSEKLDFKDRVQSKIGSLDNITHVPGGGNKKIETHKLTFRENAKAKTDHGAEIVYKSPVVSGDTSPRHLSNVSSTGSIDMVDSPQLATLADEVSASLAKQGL
- test.description: Displacement of thiazine red R from human Tau aggregate expressed in Escherichia coli after 30 mins by fluorimetric analysis
Scale: pIC50 equals -log10([C]), with [C] in mol/L.

# compound, pIC50
records = [
    ("CC(=C(C#N)C#N)c1ccc2cc(N(C)CCF)ccc2c1", 5.79),
    ("CNc1ccc(-c2nc3ccc(O)cc3s2)cc1 [PITTSBURGH COMPOUND B UNLABELLED]", 5.49),
]

What measured pIC50 goes with C[N+]1=C(/C=C/c2ccc(N3CCCC3)cc2)C(C)(C)c2ccccc21.[I-] ?
8.29

Quick one: pIC50 of CCCC[N+]1=C(/C=C/c2ccc(N(CC)CC)cc2)C(C)(C)c2ccccc21.[I-] ?
8.85
